Data provenance is ChEMBL document CHEMBL3885881.

- Species on record: Rattus norvegicus
- experiment: DrugMatrix - Regimen: Daily Repeat
- Format: toxicity, organism-based, Sprague-Dawley
- Set-up: regimen Daily Repeat, gender Male, age 6-8 weeks
- experimentalConditions: in vivo, po, 0 mg/kg, 120 h, tissue Blood, route oral GAVAGE, dose level Control, time 5 day, vehicle 100 % WATER
The entries below are paired with their reported EOSINOPHIL.
Report the value in % with no unit label.

Check out these entries, answers already filled in.
Q: Any idea what EOSINOPHIL was measured for Nc1ccc(S(=O)(=O)Nc2ccnn2-c2ccccc2)cc1 [SULFAPHENAZOLE] ?
Result: 0.17

Q: Consider the compound NCC1(CC(=O)O)CCCCC1 [GABAPENTIN] and give its measured EOSINOPHIL.
Result: 0.5

Q: I am curious: what EOSINOPHIL value has been reported for NNC(=O)c1ccncc1 [ISONIAZID] ?
Result: 0.17

Here's the next entry for you.
Q: Which EOSINOPHIL reading was recorded for the compound CC1COc2c(N3CCN(C)CC3)c(F)cc3c(=O)c(C(=O)O)cn1c23 (centres undefined) [OFLOXACIN] ?
Result: 0.5

###

- Species on record: Rattus norvegicus
- experiment: DrugMatrix - Regimen: Daily Repeat
- Assay type: toxicity, organism-based, Sprague-Dawley
- Parameters: regimen Daily Repeat, gender Male, age 6-8 weeks
- experimentalConditions: in vivo, iv, 0 mg/kg, 120 h, tissue Blood, dose level Control, time 5 day, vehicle 100 % SALINE
propertyLabel: ABSOLUTE MONOCYTE
Answer with the number, then the unit.

Solved cases (3 shown):
Q: Look up ABSOLUTE MONOCYTE for this compound: CC[C@@]1(O)C(=O)OCc2c1cc1n(c2=O)Cc2cc3ccccc3nc2-1
Result: 69.83 CELLS/uL

Q: Need ABSOLUTE MONOCYTE, item CN(N=O)C(=O)N[C@@H](C=O)[C@@H](O)[C@H](O)[C@H](O)CO
Result: 352.67 CELLS/uL

Q: Look at this compound and give its reported ABSOLUTE MONOCYTE. NCC[C@H](O)C(=O)N[C@@H]1C[C@H](N)[C@@H](O[C@H]2O[C@H](CN)[C@@H](O)[C@H](O)[C@H]2O)[C@H](O)[C@H]1O[C@H]1O[C@H](CO)[C@@H](O)[C@H](N)[C@H]1O
Result: 38.83 CELLS/uL

Now turn to the next compound.
Q: Give its ABSOLUTE MONOCYTE value. Item: CC1(C)S[C@@H]2[C@H](NC(=O)[C@H](NC(=O)N3CCNC3=O)c3ccccc3)C(=O)N2[C@H]1C(=O)O
Result: 138.67 CELLS/uL

###

TOTAL PROTEIN by entry:
- Organism: Rattus norvegicus
- experiment: DrugMatrix - Regimen: Daily Repeat
- Assay type: toxicity, organism-based, Sprague-Dawley
- Design: regimen Daily Repeat, gender Male, age 6-8 weeks
- experimentalConditions: in vivo, po, 0 mg/kg, 120 h, tissue Plasma, route oral GAVAGE, dose level Control, time 5 day, vehicle 100 % WATER
Write the answer as a number in G/DL, unit excluded.

A selection of reference data follows.
Q: Need TOTAL PROTEIN of NC(=O)c1ncn([C@@H]2O[C@H](CO)[C@@H](O)[C@H]2O)n1 , thanks.
Result: 6.12

Q: Please look up its TOTAL PROTEIN: O=C1NC(=O)C(c2ccccc2)(c2ccccc2)N1
Result: 6.1

Q: Report TOTAL PROTEIN for COc1cccc(C2(O)CCCCC2CN(C)C)c1 (stereo not given) please.
Result: 5.82

Q: I have this molecule here, COc1ccc(C(CN(C)C)C2(O)CCCCC2)cc1 (stereo not given) , and I need its recorded TOTAL PROTEIN.
Result: 6.3

Q: Sample Cc1cc(NS(=O)(=O)c2ccc(N)cc2)no1 — what was its TOTAL PROTEIN?
Result: 6.3

Q: // lookup TOTAL PROTEIN for Cn1cnc([N+](=O)[O-])c1Sc1ncnc2nc[nH]c12
Result: 6.03

Q: # get_value(readout='TOTAL PROTEIN', item= Fc1ccc([C@@H]2CCNC[C@H]2COc2ccc3c(c2)OCO3)cc1 )
Result: 5.82

Q: Quick one: TOTAL PROTEIN for C[C@]12Cc3c[nH]nc3C[C@@H]1CC[C@@H]1[C@@H]2CC[C@@]2(C)[C@H]1CC[C@]2(C)O ?
Result: 5.82

Q: # input molecule: Clc1ccc(C(c2ccccc2Cl)C(Cl)Cl)cc1 (stereo not given) ; wanted: its TOTAL PROTEIN
Result: 6.07

Shifting focus to the molecule that follows.
Q: Looking for the measured TOTAL PROTEIN of NNC(=O)c1ccncc1 , can you help?
Result: 6.15
